System: Bovine cardiac myofibrils
procedure details: In vitro model of dose-dependent myofibril ATPase modulation (AC1.4, pyruvate kinase/lactate dehydrogenase-coupled ATPase assay at pCa25)
Assay type: biochemical
conditions used: concentration at which ATPase activity was 1.4-fold higher than the bottom of the dose curve, mean of a minimum of two independent tests
Lab note: anything with AC1.4 at or over 2 µM counts as Y; the rest go in N.

CS(=O)(=O)c1cccc(C(=O)N2[C@@H](C(=O)N[C@@H](c3cc(F)c(Cl)cc3F)C3(F)COC3)C[C@H]3C[C@H]32)c1    N
O=C(N[C@@H](c1ccc(C(F)(F)F)cc1F)C1CC1)[C@H]1CCCN1C(=O)c1cccc(S(=O)(=O)CC(F)(F)F)c1    N
CS(=O)(=O)c1cc(C(=O)N2[C@@H](C(=O)N[C@@H](c3ccc(Cl)c(F)c3)C3CC3)C[C@H]3C[C@H]32)ccn1    Y
CS(=O)(=O)c1ccc(C(=O)N2CCC[C@@H]2C(=O)NC(c2ccc(C(F)(F)F)cc2F)C2CC2)cn1 (some centres unmarked)    Y
O=C(N[C@@H](c1cc(F)c(C(F)(F)F)cc1F)[C@H]1C[C@@H](O)C1)[C@H]1C[C@H]2C[C@H]2N1C(=O)c1ccnc(C(F)F)c1 (stereo in doubt)    N

Please tell me: is the compound `CC(C)(C)[C@@H](NC(=O)[C@H]1CCCN1C(=O)c1cccc(S(=O)(=O)N2CC(C#N)C2)c1)c1ccc(C(F)(F)F)cc1` at or over 2 µM in terms of AC1.4?
Y

Please tell me: is the compound `CCS(=O)(=O)c1cccc(C(=O)N2CCC[C@@H]2C(=O)NCc2ccc(C(F)(F)F)cc2)c1` at or over 2 µM in terms of AC1.4?
Y

Please tell me: is the compound `CS(=O)(=O)N1CC(c2cccc(C(=O)N3CCC[C@@H]3C(=O)N[C@@H](c3ccc(C(F)(F)F)cc3F)C3CC3)c2)C1` at or over 2 µM in terms of AC1.4?
Y

Please tell me: is the compound `N#CC1CN(S(=O)(=O)N2CCC[C@H](C(=O)N3CCCC[C@@H]3C(=O)NCc3ccc(C(F)(F)F)cc3)C2)C1` at or over 2 µM in terms of AC1.4?
N

Please tell me: is the compound `N#CC1CN(S(=O)(=O)N2CCC[C@H](C(=O)N3CCC[C@@H]3C(=O)NCc3cc(F)ccc3Cl)C2)C1` at or over 2 µM in terms of AC1.4?
N

Please tell me: is the compound `C[C@@H]1CCN(S(=O)(=O)N2CC(C#N)C2)C[C@H]1C(=O)N1CCC[C@@H]1C(=O)NCc1ccc(C(F)(F)F)cc1` at or over 2 µM in terms of AC1.4?
N

Please tell me: is the compound N#CC1CN(S(=O)(=O)N2CCC[C@H](C(=O)N3CCC[C@@H]3C(=O)NCC3CCC(C(F)(F)F)CC3)C2)C1 (some centres unmarked) at or over 2 µM in terms of AC1.4?
Y

###

Tested on: Bovine cardiac myofibrils
procedure details: In vitro model of dose-dependent myofibril ATPase modulation (AC1.4, pyruvate kinase/lactate dehydrogenase-coupled ATPase assay at pCa25)
Format: biochemical
conditions used: concentration at which ATPase activity was 1.4-fold higher than the bottom of the dose curve, mean of a minimum of two independent tests
Procedure: In vitro Model of Dose-Dependent Myofibril ATPase Modulation: Dose responses were measured using a calcium-buffered, pyruvate kinase and lactate dehydrogenase-coupled ATPase assay containing the following reagents (concentrations expressed are final assay concentrations): Potassium PIPES (12 mM), MgCl2 (2 mM), ATP (1 mM), DTT (1 mM), BSA (0.1 mg/mi), NADH (0.5 mM), PEP (1.5 mM), pyruvate kinase (4 U/ml), lactate dehydrogenase (8 U/ml), and antifoam (90 ppm). […]
Below: a set of entries, each annotated with reported AC1.4.
Answer with a number only, understood to be in µM.

Examples from the recorded data:
O=C(NCc1ccc(C(F)(F)F)cc1)[C@H]1CCCN1C(=O)[C@H]1CCCN(S(=O)(=O)N2CC(O)C2)C1    4.082
CS(=O)(=O)c1cncc(C(=O)N2CCC[C@@H]2C(=O)N[C@@H](c2cc(F)c(Cl)cc2F)C2CC2)c1    1.0375
C[C@@H](NC(=O)[C@H]1CCCN1C(=O)c1cccc(S(=O)(=O)N2CC3(CC3)C2)c1)c1ccc(Cl)cc1    3.5165

Now for a further compound.
Lookup result for `O=C(N[C@@H](c1ccc(C(F)(F)F)cc1F)C1CC1)[C@H]1CCCCN1C(=O)c1cccc(C(O)(O)C(F)(F)F)c1` ; measured AC1.4: 0.8731

# credit: patent US11780826B2
